Tested on: 282377-053-R-J1-PDC complex spheroids, viability
procedureSummary: Anticancer human tumor 282377-053-R-J1-PDC patient-derived colon adenocarcinoma cell line growth inhibition [GQUAD]
assaySetup: second compound 3.16 µM; first compound 3.16 µM; active compounds read low
# strict inequality: viability, T/C < 20% yields met, everything else yields not met

Worked set:
C=CC(=O)N1CCN(c2nc(=O)n(-c3c(C)ccnc3C(C)C)c3nc(-c4c(O)cccc4F)c(F)cc23)C(C)C1 (stereo not given) + Cc1cnc(CNC(=O)c2c(=O)c3ccc(N4CCCN(C)CC4)nc3n3c2sc2ccccc23)cn1 | not met
CC(C)n1c(=O)n(C)c2cnc3cc(F)c(-c4ccc(OCCCN5CCCCC5)nc4)cc3c21 + CN(C)c1ccc(Nc2c3ccc(NC(=O)CCN4CCCC4)cc3nc3cc(NC(=O)CCN4CCCC4)ccc23)cc1 | not met
CC1COCCN1c1cc(C2(O)CC3CCC(C2)O3)c2cnn(-c3ccn[nH]3)c2n1 (stereo not given) + Cc1cnc(CNC(=O)c2c(=O)c3ccc(N4CCCN(C)CC4)nc3n3c2sc2ccccc23)cn1 | met
COc1cccc2c1C(=O)c1c(O)c3c(c(O)c1C2=O)CC(O)(C(=O)CO)CC3OC1CC(N)C(O)C(C)O1 (stereo not given) + CN(C)c1ccc(Nc2c3ccc(NC(=O)CCN4CCCC4)cc3nc3cc(NC(=O)CCN4CCCC4)ccc23)cc1 | not met

# ---- query molecule ----
Data request: Consider COc1cccc2c1C(=O)c1c(O)c3c(c(O)c1C2=O)CC(O)(C(=O)CO)CC3OC1CC(N)C(O)C(C)O1 (stereo not given) + Cc1cnc(CNC(=O)c2c(=O)c3ccc(N4CCCN(C)CC4)nc3n3c2sc2ccccc23)cn1 . Does its viability, T/C lie strictly below 20%?
Data returned: met

----------
System: 282377-053-R-J1-PDC complex spheroids, viability
procedureSummary: Anticancer human tumor 282377-053-R-J1-PDC cell line growth inhibition [GQUAD];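 also: spheroids exposed to compounds for 7 days before readout; percent of vehicle DMSO control viability with 100% = untreated-like growth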
assaySetup: second compound 10 µM; first compound 0.0316 µM; active compounds read low
Binning of viability, T/C into classes: bin 0 (below 30%), bin 1 (30% to below 90%), bin 2 (90% or more)

CC1COCCN1c1cc(-c2ccnn2C)c2ccnc(-c3ccn[nH]3)c2n1 (stereo unspecified) + Cc1cnc(CNC(=O)c2c(=O)c3ccc(N4CCCN(C)CC4)nc3n3c2sc2ccccc23)cn1 | bin 0
Cc1cccc(N(C)C(=O)C2C(O)CCN2c2nc(C)cc(C(F)(F)F)c2C#N)c1 (stereo unspecified) + Cc1cnc(CNC(=O)c2c(=O)c3ccc(N4CCCN(C)CC4)nc3n3c2sc2ccccc23)cn1 | bin 1
CC(C)n1c(=O)n(C)c2cnc3cc(F)c(-c4ccc(OCCCN5CCCCC5)nc4)cc3c21 + CN(C)c1ccc(Nc2c3ccc(NC(=O)CCN4CCCC4)cc3nc3cc(NC(=O)CCN4CCCC4)ccc23)cc1 | bin 2
O=C(c1cc(Cc2n[nH]c(=O)c3ccccc23)ccc1F)N1CCN(C(=O)C2CC2)CC1 + CN(C)c1ccc(Nc2c3ccc(NC(=O)CCN4CCCC4)cc3nc3cc(NC(=O)CCN4CCCC4)ccc23)cc1 | bin 2
C=CCn1c(=O)c2cnc(Nc3ccc(N4CCN(C)CC4)cc3)nc2n1-c1cccc(C(C)(C)O)n1 + Cc1[nH]c2ccc(F)cc2c1-c1nc2c3cccnc3c3ncccc3c2[nH]1 | bin 0
C=CC(=O)N1CCN(c2nc(=O)n(-c3c(C)ccnc3C(C)C)c3nc(-c4c(O)cccc4F)c(F)cc23)C(C)C1 (stereo unspecified) + CN(C)c1ccc(Nc2c3ccc(NC(=O)CCN4CCCC4)cc3nc3cc(NC(=O)CCN4CCCC4)ccc23)cc1 | bin 2
COc1ccc([C@@H](O)c2cc(-c3ncnc4cc(N5CCOCC5)ccc34)c(F)cc2Cl)nn1 + Cc1[nH]c2ccc(F)cc2c1-c1nc2c3cccnc3c3ncccc3c2[nH]1 | bin 1
CC(C)n1c(=O)n(C)c2cnc3cc(F)c(-c4ccc(OCCCN5CCCCC5)nc4)cc3c21 + Cc1[nH]c2ccc(F)cc2c1-c1nc2c3cccnc3c3ncccc3c2[nH]1 | bin 1
Cc1[nH]c2ccccc2c1CCNCc1ccc(/C=C/C(=O)NO)cc1 + Cc1[nH]c2ccc(F)cc2c1-c1nc2c3cccnc3c3ncccc3c2[nH]1 | bin 1

We now examine a further molecule.
Data request: Returns: class label. Input: CCc1c2c(nc3ccc(O)cc13)-c1cc3c(c(=O)n1C2)COC(=O)[C@]3(O)CC + Cc1[nH]c2ccc(F)cc2c1-c1nc2c3cccnc3c3ncccc3c2[nH]1
Data returned: bin 0

----------
Tested on: 282377-053-R-J1-PDC complex spheroids, viability
procedureSummary: Anticancer human tumor 282377-053-R-J1-PDC cell line growth inhibition [GQUAD];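 also: spheroids exposed to compounds for 7 days before readout; percent of vehicle DMSO control viability with 100% = untreated-like growth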
assaySetup: second compound 0.316 µM; first compound 0.0316 µM; active compounds read low
experimentalEndpoint: viability, T/C (%)
// note: answer is a bare numeric in %

See these solved cases before continuing.
CC(=O)O[C@H]1C(=O)[C@@]2(C)[C@H]([C@H](OC(=O)c3ccccc3)[C@]3(O)C[C@H](OC(=O)[C@H](O)[C@@H](NC(=O)c4ccccc4)c4ccccc4)C(C)=C1C3(C)C)[C@]1(OC(C)=O)CO[C@@H]1C[C@@H]2O + Cc1[nH]c2ccc(F)cc2c1-c1nc2c3cccnc3c3ncccc3c2[nH]1 | 107
CC(=O)O[C@H]1C(=O)[C@@]2(C)[C@H]([C@H](OC(=O)c3ccccc3)[C@]3(O)C[C@H](OC(=O)[C@H](O)[C@@H](NC(=O)c4ccccc4)c4ccccc4)C(C)=C1C3(C)C)[C@]1(OC(C)=O)CO[C@@H]1C[C@@H]2O + Cc1cnc(CNC(=O)c2c(=O)c3ccc(N4CCCN(C)CC4)nc3n3c2sc2ccccc23)cn1 | 47.7
COc1ccc([C@@H](O)c2cc(-c3ncnc4cc(N5CCOCC5)ccc34)c(F)cc2Cl)nn1 + CN(C)c1ccc(Nc2c3ccc(NC(=O)CCN4CCCC4)cc3nc3cc(NC(=O)CCN4CCCC4)ccc23)cc1 | 89.1

Now look at this entry.
Data request: // returns reported viability, T/C for input CC(C)n1c(=O)n(C)c2cnc3cc(F)c(-c4ccc(OCCCN5CCCCC5)nc4)cc3c21 + CN(C)c1ccc(Nc2c3ccc(NC(=O)CCN4CCCC4)cc3nc3cc(NC(=O)CCN4CCCC4)ccc23)cc1
Data returned: 100

----------
Test system: 282377-053-R-J1-PDC complex spheroids, viability
procedureSummary: Anticancer human tumor 282377-053-R-J1-PDC cell line growth inhibition [GQUAD];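 also: spheroids exposed to compounds for 7 days before readout; percent of vehicle DMSO control viability with 100% = untreated-like growth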
assaySetup: second compound 1 µM; first compound 10 µM; active compounds read low
Source text: DNA G-quadruplex Stabilizer Agents in Combinations in Complex Spheroids A high-throughput screen of multi-cell type tumor spheroids was designed to identify active combinations of DNA G-quadruplex stabilizer agents and targeted small molecules. […] Compounds. […] If the clinical Cmax for an agent had not been determined, the highest concentration tested was 10 microM. […]
A collection of molecules and their measured viability, T/C

Below, 2 molecules whose answers are already recorded.
Cc1cccc(N(C)C(=O)C2C(O)CCN2c2nc(C)cc(C(F)(F)F)c2C#N)c1 (stereo unspecified) + Cc1cnc(CNC(=O)c2c(=O)c3ccc(N4CCCN(C)CC4)nc3n3c2sc2ccccc23)cn1 | 67.1%
CC(C)n1c(=O)n(C)c2cnc3cc(F)c(-c4ccc(OCCCN5CCCCC5)nc4)cc3c21 + CN(C)c1ccc(Nc2c3ccc(NC(=O)CCN4CCCC4)cc3nc3cc(NC(=O)CCN4CCCC4)ccc23)cc1 | 91%

Data request: Form field: viability, T/C recorded for CC1COCCN1c1cc(C2(O)CC3CCC(C2)O3)c2cnn(-c3ccn[nH]3)c2n1 (stereo unspecified) + Cc1cnc(CNC(=O)c2c(=O)c3ccc(N4CCCN(C)CC4)nc3n3c2sc2ccccc23)cn1 with 282377-053-R-J1-PDC complex spheroids, viability (enter value)
Data returned: 14.3%

Data request: Entry COc1cc(C2c3cc4c(cc3C(OC3OC5COC(C)OC5C(O)C3O)C3COC(=O)C23)OCO4)cc(OC)c1O (stereo unspecified) + Cc1cnc(CNC(=O)c2c(=O)c3ccc(N4CCCN(C)CC4)nc3n3c2sc2ccccc23)cn1 , system 282377-053-R-J1-PDC complex spheroids, viability: what viability, T/C was measured?
Data returned: 41.6%

Data request: Kindly state the measured viability, T/C obtained for O=C(c1cc(Cc2n[nH]c(=O)c3ccccc23)ccc1F)N1CCN(C(=O)C2CC2)CC1 + Cc1cnc(CNC(=O)c2c(=O)c3ccc(N4CCCN(C)CC4)nc3n3c2sc2ccccc23)cn1 with 282377-053-R-J1-PDC complex spheroids, viability.
Data returned: 54%

----------
System: 282377-053-R-J1-PDC complex spheroids, viability
procedureSummary: Anticancer human tumor 282377-053-R-J1-PDC cell line growth inhibition [GQUAD];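 also: spheroids exposed to compounds for 7 days before readout; percent of vehicle DMSO control viability with 100% = untreated-like growth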
assaySetup: second compound 0.0316 µM; first compound 0.316 µM; active compounds read low
Rule: viability, T/C below 90% gives true (1), anything at or above gives false (0).

The examples below pair each entry with its known result.
Nc1ccn(C2OC(CO)C(O)C2(F)F)c(=O)n1 (stereo unspecified) + Cc1[nH]c2ccc(F)cc2c1-c1nc2c3cccnc3c3ncccc3c2[nH]1 | true (1)
C=CCn1c(=O)c2cnc(Nc3ccc(N4CCN(C)CC4)cc3)nc2n1-c1cccc(C(C)(C)O)n1 + Cc1[nH]c2ccc(F)cc2c1-c1nc2c3cccnc3c3ncccc3c2[nH]1 | false (0)
O=C(c1cc(Cc2n[nH]c(=O)c3ccccc23)ccc1F)N1CCN(C(=O)C2CC2)CC1 + Cc1[nH]c2ccc(F)cc2c1-c1nc2c3cccnc3c3ncccc3c2[nH]1 | false (0)
O=C(NO)c1cnc(N2CCN(S(=O)(=O)c3ccc4ccccc4c3)CC2)nc1 + Cc1cnc(CNC(=O)c2c(=O)c3ccc(N4CCCN(C)CC4)nc3n3c2sc2ccccc23)cn1 | true (1)

Consider the record given below.
Data request: Below 90% on viability, T/C? Entry O=C(NO)c1cnc(N2CCN(S(=O)(=O)c3ccc4ccccc4c3)CC2)nc1 + CN(C)c1ccc(Nc2c3ccc(NC(=O)CCN4CCCC4)cc3nc3cc(NC(=O)CCN4CCCC4)ccc23)cc1
Data returned: true (1)
